EC50 (Blocking effects of the antibodies, reporter gene method) values by entry
Target: T1, human CD112R on GS-J2C/CD112R effector cells (human, UniProt Q6DKI7 1-326)
T1 sequence (looked up): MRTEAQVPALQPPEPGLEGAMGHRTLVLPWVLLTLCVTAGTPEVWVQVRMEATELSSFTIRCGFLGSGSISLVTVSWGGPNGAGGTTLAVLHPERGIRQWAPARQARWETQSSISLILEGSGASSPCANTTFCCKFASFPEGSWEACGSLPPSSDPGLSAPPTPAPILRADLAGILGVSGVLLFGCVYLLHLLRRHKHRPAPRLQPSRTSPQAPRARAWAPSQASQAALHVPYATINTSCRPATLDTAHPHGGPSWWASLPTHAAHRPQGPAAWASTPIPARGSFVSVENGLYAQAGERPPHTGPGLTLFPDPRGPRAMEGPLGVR
Test: cell-based or functional assay
Express it in µg/mL; write the number only.

In the examples that follow, each entry is paired with its recorded EC50 (Blocking effects of the antibodies, reporter gene method).
>  <BINDER>
C11 (antibody, human IgG1, kappa, V domains shown) VH: EVQLQQSGPELVKPGASVKISCKASGYTFTDYFMNWVRQSHGKSLEWIGDIHPNNGSPNYNQKFKGKATLTVGKSSSTAYMELRSLTSEDSAVYYCATGYFDVWGTGTTVTVSS VL: DIVMTQSPSSLSVSAGEKVTMSCKSSQSLLNSGNQKNYLAWYQQKPGQPPKLLIYGASTRESGVPDRFTGSGSGTDFTLTISSVQAEDLAVYYCQNDHSYPWTFGGGTKLEIKR

>  <REPORTED>
0.021

$$$$
>  <BINDER>
C156 (antibody, human IgG1, kappa, V domains shown) VH: EVQLVESGGGLVKPGGSLRLSCAASGFTFSDYYMYWVRQAPGKGLEWVATISDAGGYTYYPDSVKGRFTISRDNAKNSLYLQMNSLRAEDTAVYFCGREDLWGQGTLVTVSS VL: DIQMTQSPSSLSASVGDRVTITCRASQDIGYSLNWFQQKPGKAPKRLIYATSRLDSGVPKRFSGSGSGTDFTLTISSLQPEDFATYYCLQYASFPYTFGGGTKLEIKR

>  <REPORTED>
0.096

$$$$
>  <BINDER>
C19 (antibody, human IgG1, kappa, V domains shown) VH: EVQLVESGGGLVKPGGSLKLSCAASGFTFSDYYMYWVRQTPEKRLEWVATISDAGGYTYYPDSVKGRFTISRDNARNSLYLQMSSLKSEDTAMYFCGREDLWGQGTSVTVSS VL: DIQMTQSPSSLSASLGERVSLTCRASQDIGYSLNWLQQEPDGSVRRLIYATSRLDSGVPKRFSGSRSGSDYSLTISSLESEDFVDYYCLQYASFPYTFGGGTKLEIKR

>  <REPORTED>
0.033

$$$$
>  <BINDER>
C63 (antibody, human IgG1, kappa, V domains shown) VH: EVMLVESGGGLVKPGGSLKLSCAASGFIFSSYIMSWVRQTPEKRLEWVATIRGGGGNTYYLDSVKGRFIISRDNAKNNLYLQMSSLRSEDTALYYCARHEDYEWYAMDNWGQGTSVTVSS VL: QIVLTQSPAIMSASPGEKVTLTCSARSSVSYMYWYQQKPGSSPKLLIYDTSNLASGVPVRFSGSGSGTSYSLTISRMEAEDAATYYCQQWSSYPLTFGAGTKLELKR

>  <REPORTED>
0.023

$$$$
>  <BINDER>
C1 (antibody, human IgG1, kappa, V domains shown) VH: QVHLQQSGPELVKPGASLKISCKASGYTFTDYYLNWVKQRPGQGLEWIGWIFPGSESTFYNEKFKGKATLTVDKSSSTAYMLLNSLTSEDSAVYFCTRDGGLRGPFDYWGQGTTLTVSS VL: DIQLTQSPSSLSASLGGKVTITCKASQDINKYIAWCQHKPGKGPRLLIHYTSTLHPGIPSRFSGSGSGRDYSFSISNLEPEDSATYYCLQYDYLLTFGGGTKLEIKR

>  <REPORTED>
0.045

$$$$
>  <BINDER>
C124 (antibody, human IgG1, kappa, V domains shown) VH: EVQLVESGGGLVKPGGSLKLSCAASGFTFSSFAMSWVRQTPAKRLESVATINNGGINTYYPDTVKGRFTVSRDNAKNTLYLQMSSLRSEDTAMYYCARHDDFLYYAMDYWGQGTSVTVSS VL: QIVLTQSPAIMSASPGEKVTMTCSASSSVSYMYWYQQKPGSSPRLLIYDTSNLASGVPVRFSGSGSGTSYSLTISRMEAEDAATYYCQQWTSYPLTFGAGTKLELKR

>  <REPORTED>
0.015

$$$$

Request the reported EC50 (Blocking effects of the antibodies, reporter gene method) associated with C155 (antibody, human IgG1, kappa, V domains shown) VH: EVQLVESGGGLVKPGGSLRLSCAASGFTFSDYYMYWVRQAPGKGLEWVATISDAGGYTYYPDSVKGRFTISRDNAKNSLYLQMNSLRAEDTAVYYCGREDLWGQGTLVTVSS VL: DIQMTQSPSSLSASVGDRVTITCRASQDIGYSLNWFQQKPGKAPRRLIYATSRLDSGVPKRFSGSGSGTDFTLTISSLQPEDFATYYCLQYASFPYTFGGGTKLEIKR
0.082

Given C41 (antibody, human IgG1, kappa, V domains shown) VH: EVQLQQSGPELVKPGASVKISCKASGNTFTDYYINWVKQSHGKSLEWIGDIEPNNGGTNYNQKFKGKATLTVDKSSSTAYMELRSLTSEDSAIYYCATLYFDYWGQGTTLTVSS VL: DIVMTQSPSSLSVSAGEKVTMSCKSSQSLLNSGNQKNYLAWYQQKPGQPPKLLIYGASTRESGVPDRFTGSGSGTDFTLTISSVQAEDLAVYYCQNDHSYPFTFGSGTKLEIKR , state its recorded EC50 (Blocking effects of the antibodies, reporter gene method).
0.024

I'd like to know its EC50 (Blocking effects of the antibodies, reporter gene method). The binder in question is C129 (antibody, human IgG1, kappa, V domains shown) VH: QVQLQQSGAELMTPGSSVKLSCKATGYTFTDYWIEWVKKRPGHGLEWIGEILPGYISTNYNEKFKDKATFTADTSSNTTYMQLSSLTSEDSAVYYCVLIVTTYYYFMDYWGQGTSVTVSS VL: QIVLTQSPAIMSASPGEKVTITCSASSSVTYMHWFQQKPGTSPKLWIYSTSNLASGVPVRFSGSGSGTSYSLTISRMEAEDAATYYCQQRSSYPWTFGGGTKLEIKR
0.045

Can you look up the measured EC50 (Blocking effects of the antibodies, reporter gene method) of C8 (antibody, human IgG1, kappa, V domains shown) VH: EVQLVASGGGLVKPGGSLKLSCAASGFTFSDYYMFWVRQTPEKRLEWVATISDGGGYIYYPDSVKGRFTISRDNDRNSLYLQMSSLKSEDTAIYYCGREDFWGQGTSVTVSS VL: DIQMTQSPSSLSASLGERVSLTCRASQDIGRSLNWLQQEPDGSVRRLIYATSRLDSGVPKRFSGSRSGSDYSLTISSLESEDFVDYYCLQYASFPYTFGGGTKLEIKR for me?
0.026
